Origin of values: the antibiotic and cytotoxicity screens of Wong et al. (2023)

system: HepG2; experiment: cytotoxicity call (relative viability < 0.9); conditions: 10 µM
The campaign covered roughly 39,000 compounds. About 3,300 (8.5%) were called active. Only a selection was taken, and actives are over-represented in it overall.
measured_attribute: cytotoxicity call

Here's what some known entries look like.
O=C(NC(CO)C(O)c1ccc([N+](=O)[O-])cc1)C(Cl)Cl (stereo unspecified)    active
CCCCCCCCCCCCCCCC(=O)OCC(NC(=O)C(Cl)Cl)C(O)c1ccc([N+](=O)[O-])cc1 (stereo unspecified)    inactive
CCCCCCCCCCCCCCCC(=O)OC[C@H](NC(=O)C(Cl)Cl)[C@H](O)c1ccc([N+](=O)[O-])cc1    inactive
C[C@H](CO)N1C[C@H](C)[C@H](CN(C)C(=O)Nc2ccc(C(F)(F)F)cc2)Oc2ncc(C3=CCCC3)cc2C1=O    inactive
NNS(=O)(=O)c1ccc(Cl)cc1    inactive
COc1ccc(S(=O)(=O)Nc2ccc3c(c2)C(=O)N([C@H](C)CO)C[C@H](C)[C@@H](CN(C)C(=O)CCC(F)(F)F)OCCCC[C@H](C)O3)cc1    inactive
Cc1cc(C(=O)Nc2cccc3c2O[C@@H](CN(C)Cc2ccncc2)[C@@H](C)CN([C@H](C)CO)C3=O)n(C)n1    inactive
C[C@@H]1CN([C@H](C)CO)C(=O)c2cc(/C=C/c3ccccc3)cnc2O[C@@H]1CN(C)C(=O)Nc1ccc(C(F)(F)F)cc1    active

Task: Recorded cytotoxicity call for C[C@@H]1CN([C@H](C)CO)C(=O)c2cc(C3=CCCCC3)cnc2O[C@H]1CN(C)C(=O)CN1CCOCC1 , please?
Result: active

###

test system: HepG2; assay: cytotoxicity call (relative viability < 0.9); conditions: 10 µM
Out of some 39,000 compounds screened, about 3,300 (8.5%) were called active. Many of the other results were omitted from the sample, so actives are more common in it than they were.
Entry note: the call must match one of active, inactive

Look over these answered cases.
C[C@H](CO)N1C[C@H](C)[C@@H](CN(C)CC2CCCCC2)OCCCC[C@H](C)Oc2ccc(NC(=O)Cc3ccccc3)cc2C1=O    inactive
C[C@@H]1CN([C@@H](C)CO)C(=O)c2cc(NC(=O)Cc3ccccc3)ccc2O[C@@H](C)CCCCO[C@H]1CN(C)CC1CCCCC1    active
C[C@H](CO)N1C[C@H](C)[C@H](CN(C)CC2CCCCC2)OCCCC[C@H](C)Oc2ccc(NC(=O)Cc3ccccc3)cc2C1=O    inactive
C[C@@H]1CN([C@H](C)CO)C(=O)c2cc(NC(=O)C3CCCCC3)ccc2O[C@@H](C)CCCCO[C@H]1CN(C)Cc1ccc(C(F)(F)F)cc1    inactive
C[C@H]1CCCCO[C@@H](CN(C)CC2CCCCC2)[C@@H](C)CN([C@@H](C)CO)C(=O)c2cc(NC(=O)CCCN(C)C)ccc2O1    active

Turning to the following molecule.
Task: Lab log entry: C[C@@H]1CN([C@@H](C)CO)C(=O)c2cc(NC(=O)C3CCCCC3)ccc2O[C@@H](C)CCCCO[C@H]1CN(C)Cc1ccc(C(F)(F)F)cc1 — outcome as called in the assay?
Result: active

###

tested on: HepG2; experiment: cytotoxicity call (relative viability < 0.9); details: 10 µM
Hit rate of the full screen: of about 39,000 compounds, about 3,300 (8.5%) were called active. The sample holds actives, similar compounds and a random draw of the others, so the mix is not that of the screen.
Entry note: the call must match one of T for active, F for inactive

Cl.NCCCCC(N)C(=O)O (stereo not given)    F
C[C@@H]1CCCCO[C@H](CN(C)Cc2ccc(C(F)(F)F)cc2)[C@@H](C)CN([C@@H](C)CO)C(=O)c2cc(NC(=O)Nc3ccc(F)cc3)ccc2O1    T
C[C@@H]1CN([C@@H](C)CO)S(=O)(=O)c2ccc(C#CCN(C)C)cc2O[C@H]1CN(C)Cc1ccc2c(c1)OCO2    F
NC(CC(=O)O)C(=O)O (stereo not given)    F
NC(=O)CCC(N)C(=O)O (stereo not given)    T
N[C@H](CO)C(=O)O    F
NCCCC[C@H](N)C(=O)O    F
C[C@@H]1CCCCO[C@@H](CN(C)Cc2ccc(C(F)(F)F)cc2)[C@H](C)CN([C@@H](C)CO)C(=O)c2cc(NC(=O)Nc3ccc(F)cc3)ccc2O1    F
NC(CO)C(=O)O (stereo not given)    T

Turning to the following compound.
Task: Lab log entry: C[C@@H]1CN([C@@H](C)CO)C(=O)c2cc(NC(=O)Nc3ccc(F)cc3)ccc2O[C@@H](C)CCCCO[C@@H]1CN(C)Cc1ccc(C(F)(F)F)cc1 — outcome as called in the assay?
Result: F

###

test system: HepG2; test: cytotoxicity call (relative viability < 0.9); conditions: 10 µM
In all, about 39,000 compounds went through this assay and about 3,300 (8.5%) were called active. For the sample, actives were picked, then their nearest neighbours and some compounds at random.
Entry note: the call must match one of Yes for active, No for inactive

Look over these answered cases.
CC(C)C[C@H]1NC(=O)[C@@H](CCCN)NC(=O)[C@H](C(C)C)NC(=O)[C@H]2CCCN2C(=O)[C@@H](Cc2ccccc2)NC(=O)[C@@H](CC(C)C)NC(=O)[C@@H](CCCN)NC(=O)[C@H](C(C)C)NC(=O)[C@H]2CCCN2C(=O)[C@@H](Cc2ccccc2)NC1=O    Yes
C[C@H]1CN([C@@H](C)CO)C(=O)c2cc(NC(=O)Cn3cnnn3)ccc2O[C@H]1CN(C)Cc1ccc(Oc2ccccc2)cc1    No
C[C@@H](O)C#Cc1ccc2c(c1)O[C@H](CN(C)C(=O)c1ccncc1)[C@@H](C)CN([C@@H](C)CO)S2(=O)=O    No
C[C@@H]1CN([C@@H](C)CO)C(=O)Cc2cc(NC(=O)NC3CCCCC3)ccc2O[C@H]1CN(C)S(=O)(=O)c1cn(C)cn1    No
C[C@@H]1CCCCO[C@@H](CN(C)Cc2ccc3c(c2)OCO3)[C@@H](C)CN([C@@H](C)CO)C(=O)c2cc(NS(=O)(=O)c3cccs3)ccc2O1    No

Task: Lab log entry: C[C@@H]1CN([C@@H](C)CO)S(=O)(=O)c2ccc(-c3ccc(F)cc3)cc2O[C@H]1CN(C)C(=O)C1CCOCC1 — outcome as called in the assay?
Result: No

Task: Lab log entry: C[C@@H]1CN([C@@H](C)CO)C(=O)c2cc(NC(=O)Cc3ccccc3)ccc2O[C@@H]1CN(C)S(=O)(=O)c1cccs1 — outcome as called in the assay?
Result: No

Task: Lab log entry: C[C@H](O)C#Cc1ccc2c(c1)O[C@H](CN(C)C(=O)c1ccncc1)[C@@H](C)CN([C@H](C)CO)S2(=O)=O — outcome as called in the assay?
Result: No

Task: Lab log entry: C=CCN(CC=C)S(=O)(=O)c1nnc[nH]1 — outcome as called in the assay?
Result: No

Task: Lab log entry: C[C@@H]1CCCCO[C@@H](CN(C)S(=O)(=O)c2ccc(Cl)cc2)[C@H](C)CN([C@@H](C)CO)C(=O)c2cc(NC(=O)CCC(F)(F)F)ccc2O1 — outcome as called in the assay?
Result: Yes

Task: Lab log entry: Cc1ccc(S(=O)(=O)N(C)C[C@H]2Oc3ccc(NS(=O)(=O)c4cn(C)cn4)cc3C(=O)N([C@H](C)CO)C[C@H]2C)cc1 — outcome as called in the assay?
Result: No

Task: Lab log entry: COc1ccc(NC(=O)N(C)C[C@@H]2Oc3ccc(NC(=O)Nc4cccc5ccccc45)cc3CC(=O)N([C@H](C)CO)C[C@H]2C)cc1 — outcome as called in the assay?
Result: No

Task: Lab log entry: NCCCC[C@@H](N)C(=O)N[C@@H](Cc1ccc(O)cc1)C(=O)N[C@@H](CCCCN)C(=O)O — outcome as called in the assay?
Result: No

###

system: HepG2; experiment: cytotoxicity call (relative viability < 0.9); conditions: 10 µM
In all, about 39,000 compounds went through this assay and about 3,300 (8.5%) were called active. What follows is part of a selection rich in actives, with near analogues and random picks from the rest.
Entry note: the call must match one of active, inactive

O=C1CCC(C(=O)N2CSCC2C(=O)O)N1 (stereo not drawn)    active
CN1CC(=O)NC1=O    inactive
CC(C)NC(=O)[C@@]1(C)c2ccccc2C(=O)N(Cc2cc(C(F)(F)F)cc(C(F)(F)F)c2)[C@H]1c1ccc(CO)cc1    inactive
CO[C@@H]1CN(C)C(=O)c2ccc(NC(=O)Nc3ccc(Cl)cc3)cc2OC[C@H](C)N(C(=O)Nc2c(C)noc2C)C[C@@H]1C    inactive
COc1cnc(NS(=O)(=O)c2ccc(N)cc2)nc1    inactive

Task: Lab log entry: COC(=O)[C@@H]1N2C(=O)[C@@H](N3CC4=C[C@@H](C5CC5)n5c(=O)n(C)c(=O)n5[C@@H]4[C@@H]3[C@@H](O)Cc3ccccc3)[C@H]2SC1(C)C — outcome as called in the assay?
Result: inactive

Task: Lab log entry: NCc1cn(-c2ccccc2)nc1C12CC3CC(CC(C3)C1)C2 — outcome as called in the assay?
Result: active

Task: Lab log entry: COc1ccc(C(=O)Nc2ccc(CN3C(=O)[C@]4(O[C@H](CCO)[C@@H]([Si](C)(C)F)[C@@H]4C)c4ccccc43)cc2)cc1 — outcome as called in the assay?
Result: inactive

Task: Lab log entry: CCS(=O)(=O)N1C[C@]2(C1)CN([C@@H](CO)c1c2c2ccc(cc2n1C)OC)C(=O)c1ccc(cc1)F — outcome as called in the assay?
Result: inactive

Task: Lab log entry: COCC(=O)N1CC[C@@H]2N(S(C)(=O)=O)CC[C@@]2(C(=O)N2CCOCC2)CC1 — outcome as called in the assay?
Result: inactive

Task: Lab log entry: COCCNC(=O)C[C@@H]1CC[C@@H]2[C@H](COC[C@@H](O)CN2C(=O)Nc2ccccc2OC)O1 — outcome as called in the assay?
Result: inactive

Task: Lab log entry: Fc1ccc(Nc2ncnc3sc(-c4ccccc4)cc23)cc1 — outcome as called in the assay?
Result: inactive

Task: Lab log entry: CNC[C@@H]1OCCCC[C@H](C)Oc2ccc(NC(=O)Nc3ccc(C(F)(F)F)cc3)cc2C(=O)N([C@H](C)CO)C[C@H]1C — outcome as called in the assay?
Result: inactive
